# ASSAYED_SYSTEM: T1, human CD73 expressed on the surface of cells (human, UniProt P21589 27-549)
# T1 sequence: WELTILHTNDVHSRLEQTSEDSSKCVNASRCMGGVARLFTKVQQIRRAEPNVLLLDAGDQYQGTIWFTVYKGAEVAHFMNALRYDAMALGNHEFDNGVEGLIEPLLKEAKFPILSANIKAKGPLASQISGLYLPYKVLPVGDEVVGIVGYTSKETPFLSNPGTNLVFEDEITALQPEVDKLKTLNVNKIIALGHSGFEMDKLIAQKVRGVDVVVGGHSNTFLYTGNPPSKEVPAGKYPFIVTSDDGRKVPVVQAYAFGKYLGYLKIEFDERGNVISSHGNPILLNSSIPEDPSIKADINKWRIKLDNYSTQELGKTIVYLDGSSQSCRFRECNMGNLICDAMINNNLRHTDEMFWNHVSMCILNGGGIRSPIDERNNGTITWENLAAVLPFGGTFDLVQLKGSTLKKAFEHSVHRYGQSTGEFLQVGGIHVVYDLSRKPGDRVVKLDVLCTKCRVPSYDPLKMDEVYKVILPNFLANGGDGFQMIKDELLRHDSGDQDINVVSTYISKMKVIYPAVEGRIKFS
# ASSAY_PROCEDURE: cell-based or functional assay
ENDPOINT_LABEL: IC50 (nM), cell-based CD73 activity assay (A375 cells)
// return numeric value only (unit: nM, not printed)

>>> value("60A9-H5L2 (antibody, V domains shown) VH: EVQLVESGGGLVQPGQSLKLSCKASGYAFSSYWMNWVKQRPGKGLEWIGQIYPGDGDTYYSGKFKGRATLSADKSKNTAYLQLNNLRAEDTAVYYCAREAIYYGNYVFTYWGQGTLVTVSS VL: DIVMTQSPSSLSASLGDRVTITCKSSQSLLNSSNQKNYLAWYQQKPGQSPKLLIYFASTRDSGVPDRFSGSGSGTDFTLTISSLEPEDFATYYCQQHYSTPLTFGGGTKLEIK")
57.3

QUERY: Which IC50 (nM), cell-based CD73 activity assay (A375 cells) reading was recorded for the binder 39G8-H1L3 (antibody, V domains shown) VH: QVQLVQSGAEVKKPGASVKVSCKASGYTFTSYWMHWVRQAPGQGLEWIGEIDPSGGYTNYAQKFQGRSTLTVDKSISTAYMELSRLRSDDTAVYYCARNYYYGSSGTMDYWGQGTLVTVSS VL: DIVMTQSPDSLAVSLGERATMSCKSSQSLLNSSNQKNYLAWYQQKPGQPPKLLVYFASTRESGVPDRFSGSGSGTDFTLTISSLQAEDVAVYFCQQHYSTPYTFGGGTKVEIK ?
RESULT: 49.6

QUERY: Consider next the binder 60A9-H2L4 (antibody, V domains shown) VH: EVQLVESGGGLVQPGGSLRLSCKASGYAFSSYWMNWVRQAPGKGLEWVGQIYPGDGDTYYNPSVKGRFTISADTSKNTLYLQMNSLRAEDTAVYYCAREAIYYGNYVFTYWGQGTLVTVSS VL: DIVMTQSPSLLSASLGDRVTISCKSSQSLLNSSNQKNYLAWYQQKPGQSPKLLVYFASTRDSGVPDRFSGSGSGTDFTLTISSLEPEDFATYFCQQHYSTPLTFGAGTKLEIK in the same way.
RESULT: 46
